These entries and their values trace back to patent US20100152188A1.

Test system: NCIH460, HCT116, MDAMB-231/U 251
Test: Anti-cancer screen, mean GI50 over the cell lines
Format: cell-based
Details: in µM
Protocol: Experimental drugs are screened for anti-cancer activity in three cell lines for their GI50, TGI and LC50 values (using five concentrations for each compound). The cell lines are maintained in DMEM containing 10% fetal bovine serum. […] Percent growth is calculated for each compound's concentration relative to the control and zero measurement wells (T0; viability right before compound addition). […]
The label Criterion met is reserved for Mean GI50 strictly under 20; Criterion not met covers values equal to or above it.

O=C(Cc1csc(NC(=O)OCc2nc3ccccc3s2)n1)NO :: Criterion not met
O=C(Cc1csc(NC(=O)OCC2COc3ccccc3O2)n1)NO (centres unmarked) :: Criterion not met
CNC(=O)c1ccc(CNC(=O)OCc2nc3ccccc3[nH]2)cc1 :: Criterion not met
CONC(=O)c1ccc(CNC(=O)OCc2c(F)c(F)c(F)c(F)c2F)cc1 :: Criterion not met

// next entry
A record lists O=C(NCc1ccc(C(=O)NO)cc1)OCc1nccs1 . Is its Mean GI50 below 20?
Criterion met
